target: T1, proprotein convertase subtilisin/kexin type 9 (PCSK9) (human, UniProt Q8NBP7 31-152); assay: phage spot ELISA
T1 construct: domain: prodomain; Recombinant; tag not written as a part; also called rec.PCSK9; His-PCSK9
T1 sequence (Q8NBP7 31-152 limits assumed, chain 1 of 2): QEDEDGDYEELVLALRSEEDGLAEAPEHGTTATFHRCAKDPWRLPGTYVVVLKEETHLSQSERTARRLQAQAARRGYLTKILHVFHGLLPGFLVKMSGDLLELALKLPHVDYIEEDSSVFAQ
T1 sequence (Q8NBP7 153-692 limits assumed, chain 2 of 2): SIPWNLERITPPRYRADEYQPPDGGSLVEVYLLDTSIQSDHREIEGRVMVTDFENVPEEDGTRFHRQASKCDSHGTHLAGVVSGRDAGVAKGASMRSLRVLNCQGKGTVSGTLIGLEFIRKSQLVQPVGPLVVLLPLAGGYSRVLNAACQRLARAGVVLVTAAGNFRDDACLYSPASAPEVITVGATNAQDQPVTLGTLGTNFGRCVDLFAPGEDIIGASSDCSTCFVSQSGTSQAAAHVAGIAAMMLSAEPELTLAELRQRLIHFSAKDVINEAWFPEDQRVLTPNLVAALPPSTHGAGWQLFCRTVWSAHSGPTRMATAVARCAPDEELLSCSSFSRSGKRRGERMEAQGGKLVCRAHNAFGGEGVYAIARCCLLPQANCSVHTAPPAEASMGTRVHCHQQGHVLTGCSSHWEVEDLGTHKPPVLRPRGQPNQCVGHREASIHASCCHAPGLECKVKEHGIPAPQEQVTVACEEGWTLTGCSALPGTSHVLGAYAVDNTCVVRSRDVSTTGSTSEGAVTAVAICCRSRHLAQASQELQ
Ends that are not written are not given here.
quantity.kind: binding result

TAFTSWEEYLDWVGSGALWNMRRVESVAFR (phage clone) [SEQ ID NO 319]    binds
TAFTSWEEYLDWVGSGGPWNLNRV (phage clone) [SEQ ID NO 309]    binds
SGACLNHFVSGNMIRC (not fully specified (bridges); cysteine pairing not given here, phage clone without anchor) [SEQ ID NO 371]    binds
TAFTSWEEYLDWVGSGRGEVYDKGGVIVHL (phage clone) [SEQ ID NO 343]    binds
TAFTSWEEYLDWVGSGSSTWHFVGGVRV (phage clone) [SEQ ID NO 354]    binds
SGPRTYLRGLVD (phage clone without anchor) [SEQ ID NO 366]    binds
TAFTSWEEYLDWVGSGSETGLGTYYG (phage clone) [SEQ ID NO 350]    binds
TAFTSWEEYLDWVGSGVPWNLAKI (phage clone) [SEQ ID NO 315]    binds
TAFTSWEEYLDWVGSGNCWSSLRGICENLG (phage clone) [SEQ ID NO 307]    binds
SGNALWNHDRLT (phage clone without anchor) [SEQ ID NO 379]    binds
SGACVKPCIAGNIIR (not fully specified (bridges); cysteine pairing not given here) [SEQ ID NO 388]    binds
TAFTSWEEYLDWVGSGPHSYWLDRVQ (phage clone) [SEQ ID NO 332]    binds
TAFTSWEEYLDWVGSGTRYADRGVMVYSLS (phage clone) [SEQ ID NO 321]    binds
SGDFIPWNLVRIGLLR [SEQ ID NO 385]    binds
TAFTSWEEYLDWVGSGMPWNLARIER (phage clone) [SEQ ID NO 318]    binds
SGRNGSGYINRGIEIW (phage clone without anchor) [SEQ ID NO 380]    binds
TAFTSWEEYLDWVGSGNCARLYSHQRDYSQVC (phage clone) [SEQ ID NO 352]    binds
SGSYRGAWSVFGGSTD (phage clone without anchor) [SEQ ID NO 372]    binds
SGEHQFYSYRGVDVYR (phage clone without anchor) [SEQ ID NO 370]    binds
SGMVYVDRGVRVFT (phage clone without anchor) [SEQ ID NO 368]    binds
TAFTSWEEYLDWVGSGCWTYLRGGCSVT (not fully specified (bridges); cysteine pairing not given here, phage clone) [SEQ ID NO 339]    binds
TAFTSWEEYLDWVGSGMVYVDRGVRVFT (phage clone) [SEQ ID NO 322]    binds
TAFTSWEEYLDWVGSGSPCRVGYTPC (not fully specified (bridges); cysteine pairing not given here, phage clone) [SEQ ID NO 351]    binds
TAFTSWEEYLDWVGSGRCESKGWANTCVSE (phage clone) [SEQ ID NO 362]    binds
SGGSIPWNLERITPPR (phage clone without anchor) [SEQ ID NO 382]    binds
TAFTSWEEYLDWVGSGGCVKYRGSVSCQESKT (phage clone) [SEQ ID NO 323]    binds
